Below: a set of entries, each annotated with reported IC50, myostatin responsive reporter gene neutralisation assay (A204).
- ASSAY_SYSTEM: T1, recombinant mature dimeric myostatin (human and mouse (mature sequences 100% …, UniProt O08689 268-376))
- T1 sequence: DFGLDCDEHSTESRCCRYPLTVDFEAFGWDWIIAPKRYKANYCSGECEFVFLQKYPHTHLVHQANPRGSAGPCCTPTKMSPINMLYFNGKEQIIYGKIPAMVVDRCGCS
- PROTOCOL_DESCRIPTION: cell-based or functional assay
Kindly provide the numeric value in nM only, without the unit symbol.

Examples with their reported IC50, myostatin responsive reporter gene neutralisation assay (A204) follow.
- BINDER: "H9L5 (antibody, IgG1, V domains shown, Humanised IgG1/kappa) VH: QVQLVQSGAEVKKPGASVKISCKASGYSFTGYFMHWVRQAPGQGLEWIGNIYPYNSVSNYNQRFKAKATLTVDKSTSTAYMELRSLRSDDTAVYYCARRYYYGTGPADWYYDVWGQGTLVTVSS VL: DIQMTQSPSSLSASVGDRVTITCKASQDINSYLSWFQQKPGKAPKTLIYRANRLVDGVPSKFSGSGSGTDYTLTISSLQPEDFATYYCLQSDEFPLTFGQGTKLEIKR"
  READING: 4
- BINDER: "H7L5 (antibody, IgG1, V domains shown, Humanised IgG1/kappa) VH: QVQLVQSGAEVKKPGASVKVSCKASGYSFTGYFMHWVRQAPGQGLEWMGNIYPYNSVSNYNQRFKARVTMTVDKSTSTAYMELRSLRSDDTAVYYCARRYYYGTGPADWYYDVWGQGTLVTVSS VL: DIQMTQSPSSLSASVGDRVTITCKASQDINSYLSWFQQKPGKAPKTLIYRANRLVDGVPSKFSGSGSGTDYTLTISSLQPEDFATYYCLQSDEFPLTFGQGTKLEIKR"
  READING: 6.3
- BINDER: "H5L5 (antibody, IgG1, V domains shown, Humanised IgG1/kappa) VH: QVQLVQSGAEVKKPGASVKVSCKASGYSFTGYFMHWVRQAPGQGLEWIGNIYPYNGVSNYNQRFKARATLTVDKSTSTAYMELRSLRSDDTAVYYCARRYYYGTGPADWYYDVWGQGTLVTVSS VL: DIQMTQSPSSLSASVGDRVTITCKASQDINSYLSWFQQKPGKAPKTLIYRANRLVDGVPSKFSGSGSGTDYTLTISSLQPEDFATYYCLQSDEFPLTFGQGTKLEIKR"
  READING: 6.1
- BINDER: "mouse monoclonal antibody 10B3 (antibody, mouse IgG2a, V domains shown, Murine IgG2a/k; also called 10B3 mouse parental; parental 10B3) VH: EVQLQQSGPELVKPGASVKISCKASGYSFTGYFMHWVKQSHGNILDWIGNIYPYNGVSNYNQRFKAKATLTVDKSSSTAYMELRSLTSEDSAVYYCARRYYYGTGPADWYFDVWGTGTTVTVSS VL: DIKMTQSPSSMYASLRERVTITCKASQDINSYLSWFQQKPGKSPKTLIYRANRLVDGVPSRFSGSGSGQDYSLTISSLEYEDMGIYYCLQCDEFPLTFGAGTKLELK"
  READING: 10

Consider the record given below.
QUERY: Identify the reported IC50, myostatin responsive reporter gene neutralisation assay (A204) for the following entry. H4L6 (antibody, IgG1, V domains shown, Humanised IgG1/kappa) VH: QVQLVQSGAEVKKPGASVKVSCKASGYSFTGYFMHWVRQAPGQGLEWMGNIYPYNGVSNYNQRFKARVTMTVDKSTSTAYMELRSLRSDDTAVYYCARRYYYGTGPADWYYDVWGQGTLVTVSS VL: DIQMTQSPSSLSASVGDRVTITCKASQDINSYLSWFQQKPGKAPKTLIYRANRLVDGVPSKFSGSGSGQDYTLTISSLQPEDFATYYCLQSDEFPLTFGQGTKLEIKR
RESULT: 6.9
